Each record here notes measured CLint scaled.
# PROCEDURE_TEXT: Intrinsic clearance in mouse liver microsomes
# Type: ADME
# ASSAY_CONTEXT: read-out: CLH (converted)
REPORTED_METRIC: CLint scaled (mL/min/kg)

1) COc1ccccc1N1CCN(c2ncnc3c2cnn3-c2ccccc2F)CC1 | 28.3
2) COc1ccccc1N1CCN(c2ncnc3c2cnn3-c2cccc(F)c2)CC1 | 31.7
3) COc1ccccc1N1CCN(c2ncnc3c2cnn3-c2ccccc2)CC1 | 38.3

----------
# TARGET_OR_SYSTEM: Solute carrier family 2, facilitated glucose transporter member 2 (Homo sapiens, UniProt P11168)
# Sequence (P11168 whole entry): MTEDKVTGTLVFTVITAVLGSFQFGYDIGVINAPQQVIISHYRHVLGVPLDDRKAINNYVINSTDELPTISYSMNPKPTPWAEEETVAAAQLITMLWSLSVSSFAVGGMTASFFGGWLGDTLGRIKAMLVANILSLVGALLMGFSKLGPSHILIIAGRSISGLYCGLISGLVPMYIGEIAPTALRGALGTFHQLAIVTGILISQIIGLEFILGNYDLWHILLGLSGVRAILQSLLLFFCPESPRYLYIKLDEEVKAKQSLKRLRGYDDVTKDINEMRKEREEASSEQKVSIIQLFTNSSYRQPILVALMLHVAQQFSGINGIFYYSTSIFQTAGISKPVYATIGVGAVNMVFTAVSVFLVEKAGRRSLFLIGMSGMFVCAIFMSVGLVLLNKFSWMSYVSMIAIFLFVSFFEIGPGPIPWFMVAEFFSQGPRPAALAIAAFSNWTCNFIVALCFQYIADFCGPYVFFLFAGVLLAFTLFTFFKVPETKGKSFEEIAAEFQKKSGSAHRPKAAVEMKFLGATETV
# PROCEDURE_TEXT: Inhibition of human GLUT2 expressed in CHO cells assessed as ATP production co-incubated with 30 mM fructose for 16 hrs by CellTiter-Glo assay in presence of oxidative phosphorylation inhibitor rotenone
Please use the following IC50 ranges when assigning a class: Low = under 1 µM, Medium = from 1 µM up to 4 µM, High = 4 µM and over

1) COc1ccccc1N1CCN(c2ncnc3c2cnn3-c2ccc(F)cc2)CC1 | High
2) OC1CCCCC1N1CCN(c2ncnc3c2cnn3-c2ccccc2)CC1 (stereo unspecified) | High
3) COc1cccc(N2CCN(c3ncnc4c3cnn4-c3ccccc3)CC2)c1 | Medium
4) COc1ccc(-n2ncc3c(N4CCN(c5ccccc5OC)CC4)ncnc32)cc1 | Medium
5) COc1ccccc1C1CCN(c2ncnc3c2cnn3-c2ccccc2)CC1 | High
6) Fc1ccccc1N1CCN(c2ncnc3c2cnn3-c2ccccc2)CC1 | Medium
7) Fc1cccc(N2CCN(c3ncnc4c3cnn4-c3ccccc3)CC2)c1 | Medium
8) COc1cccc(-n2ncc3c(N4CCN(c5ccccc5OC)CC4)ncnc32)c1 | Low
9) FC(F)(F)c1ccccc1N1CCN(c2ncnc3c2cnn3-c2ccccc2)CC1 | High
10) N#Cc1cccc(N2CCN(c3ncnc4c3cnn4-c3ccccc3)CC2)c1 | Low
11) COc1ccccc1N1CCN(c2ccnc3c2cnn3-c2ccccc2)CC1 | Low
12) COc1ccccc1N1CCN(c2ncnc3c2cnn3-c2ccncc2)CC1 | High
13) COc1ccc(F)cc1N1CCN(c2ncnc3c2cnn3-c2ccccc2)CC1 | High
14) COc1cc(F)ccc1N1CCN(c2ncnc3c2cnn3-c2ccccc2)CC1 | High
15) COc1ccccc1N1CCN(c2nnnc3c2cnn3-c2ccccc2)CC1 | High
16) N#Cc1ccccc1N1CCN(c2ncnc3c2cnn3-c2ccccc2)CC1 | High
17) Oc1ccccc1N1CCN(c2ncnc3c2cnn3-c2ccccc2)CC1 | Low
18) COc1ccccc1N1CCN(c2ncnc3c2cnn3-c2ccccc2)CC1C (stereo unspecified) | Medium
19) COc1ccccc1N1CCN(c2ncnc3c2cnn3-c2cccc(C)c2)CC1 | High
20) COc1cc(C#N)ccc1N1CCN(c2ncnc3c2cnn3-c2ccccc2)CC1 | Medium
21) COc1ccccc1N1CCN(c2nccc3c2cnn3-c2ccccc2)CC1 | High
22) COc1ccccc1N1CCN(c2ncnc3c2cnn3-c2ccccc2F)CC1 | Medium
23) COc1ccccc1N1CCN(c2ncnc3c2cnn3-c2ccccn2)CC1 | High
24) COc1ccccc1N1CCN(c2ncnc3c2cnn3-c2ccc(C)cc2)CC1 | High
25) COc1ccccc1N1CCN(c2ncnc3c2cnn3-c2cc(F)ccc2OC)CC1 | Low
26) COc1ccccc1N1CCN(c2ncnc3c2cnn3-c2ncccc2F)CC1 | High

The measured values listed here are drawn from ChEMBL document CHEMBL3779893.
